assayed.target: COVID-19 (nCoV-2019, SARS-CoV2) Mpro (Severe acute respiratory syndrome coronavirus 2)
test.protocol: COVID-19 (nCoV-2019, SARS-CoV2) Mpro enzymatic assay
Format: biochemical
measurement.context: 25 nM Mpro, 25 μM substrate; read-out: COVID-19 Mpro IC50
Would you mind telling me the reported IC50 of each entry?

Q: Supply IC50 value. Item: N#CN1CC[C@H]2C[C@]21C(=O)N(c1ccc(S(F)(F)(F)(F)F)cc1)C(C(=O)NC1CCC(F)(F)CC1)c1cncc(F)c1 (stereo partly shown)
Ans: > 30000 nM

Q: Supply IC50 value. Item: CC(C)(C)c1ccc(N(C(=O)[C@H]2CCCN2C#N)C(C(=O)NCC2COC2)c2cccnc2)cc1 (single isomer, unassigned) [Compound 419 Isomer 2]
Ans: 2000 to 10000 nM

Q: Supply IC50 value. Item: CO[C@@H]1C[C@H](C(=O)N(c2ccc(S(F)(F)(F)(F)F)cc2)C(C(=O)NC(C)C2CCCCN2C(=O)OC(C)(C)C)c2cccnc2)N(C#N)C1 (single isomer, unassigned) [1303 Isomer 2]
Ans: < 2000 nM

Q: Supply IC50 value. Item: N#CN1CCOC[C@@H]1C(=O)N(c1ccc(C2CC2)cc1F)C(C(=O)NC1CCC(F)(F)CC1)c1cnccc1C(F)(F)F (single isomer, unassigned) [Compound 1313 Isomer 1]
Ans: < 2000 nM

---

Would you mind telling me the reported IC50 of each entry?
assayed.target: COVID-19 (nCoV-2019, SARS-CoV2) Mpro (Severe acute respiratory syndrome coronavirus 2, UniProt P0DTD1)
test.protocol: COVID-19 (nCoV-2019, SARS-CoV2) Mpro enzymatic assay
Format: biochemical
measurement.context: 25 nM Mpro, 25 μM substrate; read-out: COVID-19 Mpro IC50

Q: Supply IC50 value. Item: CO[C@@H]1C[C@H](C(=O)N(c2ccc(S(F)(F)(F)(F)F)cc2F)C(C(=O)NC2CCC(F)(F)CC2)c2cccnc2)N(C#N)C1 (single isomer, unassigned) [1288 Isomer 1]
Ans: < 2 µM

Q: Supply IC50 value. Item: COc1ccc(NC(=O)C(c2cccnc2)N(C(=O)[C@H]2CCCN2C#N)c2ccc(C(C)(C)C)cc2)cn1 (single isomer, unassigned) [Compound 407 Isomer 1]
Ans: < 2 µM

Q: Supply IC50 value. Item: Cc1nnsc1C(C(=O)NC1CCCCC1)N(C(=O)c1cnc[nH]1)c1ccc(C(C)(C)C)cc1 (stereo not shown)
Ans: > 30 µM

Q: Supply IC50 value. Item: C[C@H](NC(=O)C(c1cnccn1)N(C(=O)c1ccco1)c1ccc(-c2ccccc2)cc1)c1ccccc1 (single isomer, unassigned) [1355 Isomer 1]
Ans: < 2 µM

Q: Supply IC50 value. Item: CN1CC(C(=O)N(c2ccc(S(F)(F)(F)(F)F)cc2)C(C(=O)NC2CCC(F)(F)CC2)c2cncc(F)c2)N(C#N)CC1=O (stereo not shown) [Compound 1161]
Ans: < 2 µM

Q: Supply IC50 value. Item: C[C@@H]1C[C@H](C(=O)N(c2ccc(C(C)(C)C)cc2)C(C(=O)NC2CCCCC2)c2cccnc2)N(C#N)C1 (single isomer, unassigned) [Compound 232 Isomer 2]
Ans: 2 to 10 µM

Q: Supply IC50 value. Item: C[C@@]1(O)C[C@H](C(=O)N(c2ccc(S(F)(F)(F)(F)F)cc2)C(C(=O)NC2CCC(F)(F)CC2)c2ccc(F)nc2)N(C#N)C1 (single isomer, unassigned) [1157 Isomer 1]
Ans: < 2 µM

Q: Supply IC50 value. Item: CO[C@@H]1C[C@H](C(=O)N(c2ccc(S(F)(F)(F)(F)F)cc2)C(C(=O)NCC(C)(C)OC)c2cccnc2)N(C#N)C1 (single isomer, unassigned) [1194 Isomer 2]
Ans: 10 to 30 µM

Q: Supply IC50 value. Item: CO[C@@H]1C[C@H](C(=O)N(c2ccc(S(F)(F)(F)(F)F)cc2)C(C(=O)NCC2(C)COC2)c2cccnc2)N(C#N)C1 (single isomer, unassigned) [1176 Isomer 1]
Ans: < 2 µM

Q: Supply IC50 value. Item: N#CN1CC(F)(F)C[C@@H]1C(=O)N(c1ccc(S(F)(F)(F)(F)F)cc1)C(C(=O)NC1CCC(F)(F)CC1)c1cccnc1 (single isomer, unassigned) [1087 Isomer 2]
Ans: 2 to 10 µM

---

assayed.target: UniProtKB P0C6X1
test.protocol: 229E Mpro enzymatic assay (standard methods, SARS-CoV2 Mpro assay given as exemplary)
Format: biochemical, human coronavirus (HCov) 229E
measurement.context: 229E Mpro EC50
pEC50: −log10 of the molar value.
endpoint: pEC50

Q: Supply pEC50 value. Item: COC(C)(C)CNC(=O)C(c1cccnc1)N(C(=O)[C@H]1CCCN1C#N)c1ccc(C(C)(C)C)cc1 (single isomer, unassigned) [Compound 427 Isomer 1]
Ans: 5.00 to 5.70

Q: Supply pEC50 value. Item: CC1(C)CN(C#N)[C@@H](C(=O)N(c2ccc(C(C)(C)C)cc2)C(C(=O)NC2CCOCC2)c2cccnc2)CO1 (single isomer, unassigned) [1141 Isomer 3]
Ans: 4.52 to 5.00

Q: Supply pEC50 value. Item: COc1ccc(NC(=O)C(c2cccnc2)N(C(=O)[C@H]2CCCN2C#N)c2ccc(C(C)(C)C)cc2)cn1 (single isomer, unassigned) [Compound 407 Isomer 1]
Ans: > 5.70

Q: Supply pEC50 value. Item: C[C@@]1(O)C[C@H](C(=O)N(c2ccc(S(F)(F)(F)(F)F)cc2)C(C(=O)NC2CCC(F)(F)CC2)c2cccnc2)N(C#N)C1 (single isomer, unassigned) [Compound 1156 Isomer 1]
Ans: > 5.70

Q: Supply pEC50 value. Item: CO[C@@H]1C[C@H](C(=O)N(c2ccc(S(F)(F)(F)(F)F)cc2)C(C(=O)N(CCO)C2CCC(F)(F)CC2)c2cccnc2)N(C(=O)OCc2ccccc2)C1 (some centres unmarked) [Compound 1244]
Ans: < 4.52

---

Would you mind telling me the reported EC50 of each entry?
assayed.target: 229E Mpro (Human coronavirus 229E)
test.protocol: 229E Mpro enzymatic assay (standard methods, SARS-CoV2 Mpro assay given as exemplary)
Type: biochemical, human coronavirus (HCov) 229E
measurement.context: 229E Mpro EC50

Q: Give the observed EC50 of CO[C@@H]1C[C@H](C(=O)N(c2ccc(S(F)(F)(F)(F)F)cc2)C(C(=O)NCCc2cccc(F)c2)c2cccnc2)N(C#N)C1 (single isomer, unassigned) [1197 Isomer 1] for 229E Mpro (Human coronavirus 229E).
Ans: < 2000 nM

Q: Give the observed EC50 of CC1(C(=O)N(c2ccc(C(C)(C)C)cc2)C(C(=O)NC2CCCCC2)c2cccnc2)CN(C#N)C1 (stereo not drawn) for 229E Mpro (Human coronavirus 229E).
Ans: 2000 to 10000 nM

Q: Give the observed EC50 of CC(C(=O)NC1CCC(F)(F)CC1)(c1cccnc1)N(C(=O)[C@H]1C[C@@](C)(O)CN1C#N)c1ccc(S(F)(F)(F)(F)F)cc1 (stereo partly drawn) [Compound 1077] for 229E Mpro (Human coronavirus 229E).
Ans: < 2000 nM

---

assayed.target: 229E Mpro (Human coronavirus 229E, UniProt P0C6X1)
Sequence (P0C6X1 2966-3267): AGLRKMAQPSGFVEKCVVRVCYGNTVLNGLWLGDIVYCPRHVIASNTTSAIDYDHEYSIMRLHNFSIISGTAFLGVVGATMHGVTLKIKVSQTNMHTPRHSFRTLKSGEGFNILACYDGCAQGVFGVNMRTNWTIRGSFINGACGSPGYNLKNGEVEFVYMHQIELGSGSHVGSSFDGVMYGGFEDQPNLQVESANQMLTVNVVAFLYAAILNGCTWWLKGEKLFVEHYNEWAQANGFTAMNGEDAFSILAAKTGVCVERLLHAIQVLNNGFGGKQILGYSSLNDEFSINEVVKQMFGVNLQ
test.protocol: 229E Mpro enzymatic assay (standard methods, SARS-CoV2 Mpro assay given as exemplary)
Format: biochemical, human coronavirus (HCov) 229E
measurement.context: read-out: 229E Mpro EC50
endpoint: EC50

Q: Supply EC50 value. Item: CO[C@@H]1C[C@H](C(=O)N(c2ccc(S(F)(F)(F)(F)F)cc2)C(C(=O)NC2CCC(F)(F)CC2)c2cnccc2C)N(C#N)C1 (single isomer, unassigned) [1199 Isomer 2]
Ans: < 2 µM

Q: Supply EC50 value. Item: CC(C)(C)c1ccc(N(C(=O)c2nsnc2C#N)C(C(=O)NC2CCCCC2)c2cccnc2)cc1 (centres unmarked)
Ans: > 30 µM

Q: Supply EC50 value. Item: N#CN1C[C@H](O)C[C@@H]1C(=O)N(c1ccc(C2(C(F)(F)F)CC2)cc1)C(C(=O)NC1CCC(F)(F)CC1)c1cncc(F)c1 (single isomer, unassigned) [Compound 815a Isomer 2]
Ans: < 2 µM

Q: Supply EC50 value. Item: CC(C)(C)c1ccc(N(C(=O)[C@H]2C[C@@H](O)CN2C#N)C(C(=O)NC2CCCCC2)c2cccnc2)cc1 (single isomer, unassigned) [Compound 254 Isomer 2]
Ans: < 2 µM

Q: Supply EC50 value. Item: CC(C)(C)c1ccc(N(C(=O)[C@H]2C[C@@H](O)CN2C#N)C(C(=O)NC2CCCCC2)c2cncc(Cl)c2)cc1 (single isomer, unassigned) [675 Isomer 2]
Ans: < 2 µM

Q: Supply EC50 value. Item: CO[C@@H]1C[C@H](C(=O)N(c2ccc(S(F)(F)(F)(F)F)cc2F)C(C(=O)NC2CCC(F)(F)CC2)c2cccnc2)N(C#N)C1 (single isomer, unassigned) [1288 Isomer 2]
Ans: < 2 µM

Q: Supply EC50 value. Item: CO[C@@H]1C[C@H](C(=O)N(c2ccc(S(F)(F)(F)(F)F)cc2)C(C(=O)NCC(C)(C)OC)c2cccnc2)N(C#N)C1 (single isomer, unassigned) [1194 Isomer 2]
Ans: < 2 µM

Q: Supply EC50 value. Item: C[C@@]1(O)C[C@H](C(=O)N(c2ccc(S(F)(F)(F)(F)F)cc2)C(C(=O)NC2CCC(F)(F)CC2)c2cccnc2F)N(C#N)C1 (single isomer, unassigned) [1158 Isomer 2]
Ans: < 2 µM

Q: Supply EC50 value. Item: CC(C)(C)c1ccc(N(C(=O)[C@H]2CC(=O)CN2C#N)C(C(=O)NC2CCCCC2)c2cccnc2)cc1 (single isomer, unassigned) [Compound 278 Isomer 2]
Ans: < 2 µM

Q: Supply EC50 value. Item: CC(C)(C)c1ccc(N(C(=O)[C@H]2C[C@@H](O)CN2C#N)C(C(=O)NC2CCCCC2)c2cccnc2)cc1 (single isomer, unassigned) [Compound 254 Isomer 1]
Ans: < 2 µM

Q: Supply EC50 value. Item: Cc1nc[nH]c1C(C(=O)NC1CCC(F)(F)CC1)N(C(=O)[C@H]1C[C@@](C)(O)CN1C#N)c1ccc(S(F)(F)(F)(F)F)cc1 (single isomer, unassigned) [1324 Isomer 2]
Ans: 10 to 30 µM

Q: Supply EC50 value. Item: N#CN1C[C@@H](OC(F)F)C[C@@H]1C(=O)N(c1ccc(S(F)(F)(F)(F)F)cc1)C(C(=O)NC1CCC(F)(F)CC1)c1cncc(F)c1 (single isomer, unassigned) [Compound 823a Isomer 2]
Ans: < 2 µM

Q: Supply EC50 value. Item: O=C(NC1CCC(F)(F)CC1)C(c1cncc(F)c1)N(C(=O)c1cnc[nH]1)c1ccc(S(F)(F)(F)(F)F)cc1 (single isomer, unassigned) [1337 Isomer 2]
Ans: 2 to 10 µM

Q: Supply EC50 value. Item: CO[C@@H]1C[C@H](C(=O)N(c2ccc(S(F)(F)(F)(F)F)cc2)C(C(=O)NC2CCC(F)(F)CC2)c2cncc(F)c2)N(C#N)C1 (single isomer, unassigned) [1265 Isomer 2]
Ans: < 2 µM

Q: Supply EC50 value. Item: C[C@H](NC(=O)C(c1cncc(F)c1)N(C(=O)[C@H]1C[C@@](C)(O)CN1C#N)c1ccc(S(F)(F)(F)(F)F)cc1)c1ccccc1 (single isomer, unassigned) [1328 Isomer 2]
Ans: < 2 µM

Q: Supply EC50 value. Item: CO[C@@H]1C[C@H](C(=O)N(c2ccc(S(F)(F)(F)(F)F)cc2)C(C(=O)NCCc2cc(F)cc(F)c2)c2cccnc2)N(C#N)C1 (single isomer, unassigned) [1196 Isomer 2]
Ans: < 2 µM

Q: Supply EC50 value. Item: N#CN1CC(F)(F)C[C@@H]1C(=O)N(c1ccc(S(F)(F)(F)(F)F)cc1)C(C(=O)NC1CCC(F)(F)CC1)c1cccnc1 (single isomer, unassigned) [1087 Isomer 2]
Ans: < 2 µM

Hey, just so you know, these numbers are from patent US20220380347A1.
